- Tested on: Colletotrichum gloeosporioides
- ASSAY NOTES: Fungitoxicity against Colletotrichum gloeosporioides assessed as mycelial growth inhibition by poisoned food technique
- Format: functional, organism-based
- RUN CONDITIONS: read-out: pEC50 (converted)
Lab note - cut at 3 mM for EC50: yes (1) if strictly below, no (0) if not.

- MOLECULE: "CC1CCC(C(C)C)C(O)C1 (stereo not given) [MENTHOL]"
  CLASS LABEL: "yes (1)"
- MOLECULE: "CCCCCO [1-PENTANOL]"
  CLASS LABEL: "no (0)"
- MOLECULE: "CCCCCCCO [1-HEPTANOL]"
  CLASS LABEL: "no (0)"
- MOLECULE: "C=CC(C)(O)CCC=C(C)C (stereo not given) [LINALOOL]"
  CLASS LABEL: "no (0)"
- MOLECULE: "CC(C)=CCCC(C)CCO (stereo not given) [CITRONELLOL]"
  CLASS LABEL: "yes (1)"

Lab note: confirm whether the reported EC50 for this molecule is below 3 mM, equality not counting. molecule: CCCCO [BUTYL ALCOHOL]
no (0)

Try CC(C)CCO [3-METHYLBUTANOL] next.
no (0)

Try CC(C)=CCC/C(C)=C/CO [GERANIOL] next.
yes (1)

Try CCCCCCO [1-HEXANOL] next.
no (0)

====

- Tested on: Colletotrichum gloeosporioides
- ASSAY NOTES: Fungitoxicity against Colletotrichum gloeosporioides assessed as mycelial growth inhibition by poisoned food technique
- Type: functional, organism-based
- RUN CONDITIONS: read-out: MEC
Lab note - cut at 900 µg/mL for minimal effective concentration: T if strictly below, F if not.

- STRUCTURE SMILES: "CCCCCCCCO"
  CLASS LABEL: "T"
- STRUCTURE SMILES: "CCCCCO"
  CLASS LABEL: "T"
- STRUCTURE SMILES: "CO"
  CLASS LABEL: "F"
- STRUCTURE SMILES: "CCO"
  CLASS LABEL: "F"
- STRUCTURE SMILES: "CCCCCCCO"
  CLASS LABEL: "T"
- STRUCTURE SMILES: "CCCCCCCCCCO"
  CLASS LABEL: "T"
- STRUCTURE SMILES: "CCCCCCO"
  CLASS LABEL: "T"

Lab note: confirm whether the reported minimal effective concentration for this molecule is below 900 µg/mL, equality not counting. molecule: CCCO
F

====

- Test system: Colletotrichum gloeosporioides
- ASSAY NOTES: Fungitoxicity against Colletotrichum gloeosporioides assessed as mycelial growth inhibition by poisoned food technique
- Type: functional, organism-based
- RUN CONDITIONS: read-out: pEC50 (converted)
Lab note - cut at 10 mM for EC50: Satisfied if strictly below, Not satisfied if not.

Lab note: confirm whether the reported EC50 for this molecule is below 10 mM, equality not counting. molecule: CCCCCCCCCCO
Satisfied

Try OCc1ccccc1 next.
Not satisfied

Try OCCc1ccccc1 next.
Satisfied

Try CCCCCCCCO next.
Satisfied

====

- Tested on: Colletotrichum gloeosporioides
- ASSAY NOTES: Fungitoxicity against Colletotrichum gloeosporioides assessed as mycelial growth inhibition by poisoned food technique
- Assay type: functional, organism-based
- RUN CONDITIONS: read-out: EC50
PARAMETER MEASURED: EC50 (µg/mL)
Lab book: enter the figure in µg/mL, no units written.

// known answers, use as guide
- COMPOUND: "CCCCO"
  READOUT UNIT: "µg/mL"
  VALUE MEASURED: 3690
- COMPOUND: "CC(C)CCO"
  READOUT UNIT: "µg/mL"
  VALUE MEASURED: 3710
- COMPOUND: "CCCO"
  READOUT UNIT: "µg/mL"
  VALUE MEASURED: 8980
- COMPOUND: "CCCCCO"
  READOUT UNIT: "µg/mL"
  VALUE MEASURED: 2130
- COMPOUND: "C=C[C@H](O)CCCCC"
  READOUT UNIT: "µg/mL"
  VALUE MEASURED: 1290
- COMPOUND: "CC(C)=CCCC(C)CCO (stereo not drawn)"
  READOUT UNIT: "µg/mL"
  VALUE MEASURED: 84
- COMPOUND: "C=CC(C)(O)CCC=C(C)C (stereo not drawn)"
  READOUT UNIT: "µg/mL"
  VALUE MEASURED: 1090
- COMPOUND: "CCCCCCCCCCO"
  READOUT UNIT: "µg/mL"
  VALUE MEASURED: 112
- COMPOUND: "CC(C)=CCC/C(C)=C/CO"
  READOUT UNIT: "µg/mL"
  VALUE MEASURED: 100
- COMPOUND: "CC(C)CO"
  READOUT UNIT: "µg/mL"
  VALUE MEASURED: 8200

// lookup EC50 for CO
24700

Try CCCCCCO next.
1270

Try CC(C)O next.
18200

Try OCCc1ccccc1 next.
1000

Try CCCCCCCO next.
546

Try CC(C)(C)O next.
17100

Try CCCCCCCCO next.
298

Try CCO next.
17700

Try CC1CCC(C(C)C)C(O)C1 (stereo not drawn) next.
452

Try CC(C)[C@@H]1CC[C@@H](C)C[C@@H]1O [(+) NEOMENTHOL] next.
488

Try OCc1ccccc1 next.
1180
